Test system: DU-145 prostate
Assay: NCI-60 one-dose screen, 48 h (100 = growth as untreated, 0 = no growth, -100 = all killed)
Conditions: 10 µM unless noted
The panel holds about 83,000 compounds, 20% with a hit somewhere; the sample as a whole holds those more often.
# key: entry, value: growth
Property name: growth (%)

> print(dat)
                                    molecule  quantity.unit  obs.value
 1  C#CCNC1CCC(c2csc(C#C)n2)=C1C (stereo not given)              %       67.6
 2  N/C(=N\C(N)=N\c1nc2ccccc2s1)c1ccc(C(F)(F)F)cc1              %       80.1
 3  N#Cc1cccc(CN2CCC3=C(C2)C(=O)N(Cc2ccc(Cl)cc2)C2=NCCN23)c1              %       28.5
 4  COC(=O)c1ccc(NC2=C/C(=N/S(=O)(=O)c3ccc(C(=O)O)cc3)c3ccccc3C2=O)cc1              %       7.85
 5  N#Cc1cnc2ccc(-c3cnc(N)nc3)cc2c1N1CCc2cc(F)c(Cl)cc21              %       13.3
 6  COc1ccc(Cn2cc3c(c2-c2cc(OC)c(OC)c(OC)c2)CCc2c(CN4CCCC4)noc2-3)cc1              %       22.7
 7  COc1cc(-c2nc(SC(C)C)n(C(C)C)c(=O)c2C#N)ccc1OCc1ccccc1              %       99.1
 8   NS(=O)(=O)c1ccc(-n2cc(CN3CCNCC3)nn2)cc1              %        111
 9  COc1cc(-c2nn(C(C)(C)C)cc2-c2ccnc(NCCCNS(=O)(=O)c3cccc(F)c3)n2)ccc1Cl              %       69.3
10  COc1cc(OC)cc(C(=O)Nc2sc3c(c2C(N)=O)CCC(=O)C3)c1              %       99.4
